- Test system: OPM2
- protocol.notes: Anti-proliferative effect (CellTiter-Glo, 72 h), OPM2
- Format: cell-based
- condition: Homo sapiens, OPM-2, 72 h, OPM2 cells, median, read-out: IC50 antiproliferation assay OPM2 [M] (median)
measured.quantity: IC50

| compound | measured.quantity | result |
| --- | --- | --- |
| Cc1nn(C)c2c1-c1cccc3c(CCCOc4cccc5ccccc45)c(C(=O)O)n(c13)CCCN(c1ccccc1)C2 (racemic) | IC50 | 1.43e-05 M |
| Cc1c2c(nn1C)COCCCCn1c(C(=O)O)c(CCCOc3cccc4ccccc34)c3cccc-2c31 (racemic) | IC50 | 1.01e-05 M |
| Cc1cc(OCCCc2c(C(=O)O)n3c4c(cccc24)-c2c(C)nn(C)c2COCCC3)cc(C)c1Cl (racemic) | IC50 | > 3.3e-05 M |
| Cc1nn(C)c2c1-c1cccc3c(CCCOc4cccc5cc(F)ccc45)c(C(=O)O)n(c13)CCCCOC2 (racemic) | IC50 | 9.67e-06 M |
| Cn1nc2c(c1CN1CCOCC1)-c1cccc3c(CCCOc4cccc5ccccc45)c(C(=O)O)n(c13)C/C=C\COC2 (racemic) | IC50 | > 3.3e-05 M |
| CCc1c2c(nn1C)CN(C)CCCn1c(C(=O)O)c(CCCOc3cccc4ccccc34)c3ccc(C)c-2c31 (single isomer, unassigned; enantiomer 1) [Example 145] | IC50 | 3.22e-06 M |

* * *

Below, each entry is listed alongside its reported IC50.
- Tested on: A2780
- protocol.notes: Anti-proliferative effect (CellTiter-Glo, 72 h), A2780
- Type: cell-based
- condition: A2780 cells, median, read-out: IC50 antiproliferation assay A2780 [M] (median)
- Procedure: Assessment of the Anti-Proliferative Effect of Compounds in Different Cell Lines The impact of compounds on the proliferation of different cell lines was assessed using the CellTiter-Glo® Luminescent Cell Viability reagent from Promega (G7573). […] After 72 h incubation, the treated plates were measured in the same way as the day 0 plate mentioned above.

| compound | qualifier.operator | IC50, M |
| --- | --- | --- |
| Cn1nc(CN2CC3(COC3)C2)c2c1COCCCCn1c(C(=O)O)c(CCCOc3cccc4ccccc34)c3cccc-2c31 (single isomer, unassigned; enantiomer 1) [Example 344] | > | 3.3e-05 |
| CN1CCCn2c(C(=O)O)c(CCCOc3cccc4ccccc34)c3cccc(c32)-c2c(CNCC(F)(F)F)nn(C)c2C1 (single isomer, unassigned; enantiomer 2) | = | 1.48e-05 |
| CCc1nn(C)c2c1-c1c(C)ccc3c(C(C)CCOc4cccc5cc(F)ccc45)c(C(=O)O)n(c13)CCCCOC2 (single isomer, unassigned) [Example 264] | = | 1.92e-05 |
| COCCn1nc(C2CC2)c2c1COCCCCn1c(C(=O)O)c(CCCOc3cccc4ccccc34)c3cccc-2c31 (single isomer, unassigned; enantiomer 2) [Example 104] | = | 2.21e-05 |
| O=C(O)c1c(CCCOc2cccc3ccccc23)c2cccc3c2n1CCCCOCc1nn2c(c1-3)COCC2 (racemic) | > | 3.3e-05 |
| Cn1nc(C(F)(F)F)c2c1COCCCCn1c(C(=O)O)c(CCCOc3cccc4ccccc34)c3cccc-2c31 (single isomer, unassigned) [Example 218] | = | 2.52e-05 |

* * *

Below, each entry is listed alongside its reported log10(IC50).
- System: SUDHL5
- protocol.notes: Induction of cytotoxicity (CellTiter-Glo, 5 h), SUDHL5
- condition: read-out: Cytotox SUDHL5 [M] (median); SUDHL5 cells, cytotoxicity induction, CellTiter-Glo, 5 h incubation, median
measured.quantity: log10(IC50) (log10 of the value in M)

| compound | measured.quantity | result.number |
| --- | --- | --- |
| CN1CCCn2c(C(=O)O)c(CCCOc3cccc4ccccc34)c3cccc(c32)-c2c(COc3ccc(-n4ccccc4=O)cc3)nn(C)c2C1 (single isomer, unassigned; enantiomer 2) [Example 1-116] | log10(IC50) | -4.88 |
| CCCc1nn(C)c2c1-c1c(C)ccc3c(CCCOc4cccc5ccccc45)c(C(=O)O)n(c13)CCCCOC2 (single isomer, unassigned; enantiomer 2) [Example 189] | log10(IC50) | -4.54 |
| Cc1nn(C)c2c1-c1cccc3c(CCCOc4ccc(F)c5ccccc45)c(C(=O)O)n(c13)CCCCOC2 (single isomer, unassigned; enantiomer 2) [Example 023] | log10(IC50) | -5.74 |
| Cc1nn(C)c2c1-c1cccc3c(CCCOc4cccc5ccccc45)c(C(=O)O)n(c13)CCCOC2 (single isomer, unassigned; enantiomer 1) [Example 044] | log10(IC50) | -5.22 |
| Cn1nc2c(c1CN1CCOCC1)-c1cccc3c(CCCOc4cccc5ccccc45)c(C(=O)O)n(c13)CCCCOC2 (single isomer, unassigned; enantiomer 1) [Example 079] | log10(IC50) | -5.37 |
| Cc1ccc2c(C(C)CCOc3cccc4cc(F)ccc34)c(C(=O)O)n3c2c1-c1c(nn(C)c1C)COCCCC3 (single isomer, unassigned) [Example 278] | log10(IC50) | -4.61 |
| Cc1c2c(nn1C)COCCCn1c(C(=O)O)c(CCCOc3cccc4ccccc34)c3cccc-2c31 (single isomer, unassigned; enantiomer 1) [Example 064] | log10(IC50) | -5.12 |
| CN(C)S(=O)(=O)N1CCN(c2ccc(OCc3nn(C)c4c3-c3cccc5c(CCCOc6cccc7ccccc67)c(C(=O)O)n(c35)CCCCCC4)cc2)CC1 (single isomer, unassigned; enantiomer 2) [Example 1-41] | log10(IC50) | -6.11 |
| Cc1nn(C)c2c1-c1cccc3c(CCCOc4cccc5cc(Cl)ccc45)c(C(=O)O)n(c13)CCCCOC2 (single isomer, unassigned; enantiomer 1) [Example 041] | log10(IC50) | -4.99 |

* * *

- Test system: SUDHL5
- protocol.notes: Induction of cytotoxicity (CellTiter-Glo, 5 h), SUDHL5
- condition: read-out: Cytotox SUDHL5 [M] (median); SUDHL5 cells, cytotoxicity induction, CellTiter-Glo, 5 h incubation, median
Below, each entry is listed alongside its reported IC50.

| compound | qualifier.operator | IC50, M |
| --- | --- | --- |
| O=C(O)c1c(CCCOc2cccc3ccccc23)c2cccc3c2n1CCCCOCc1nn2c(c1-3)CCCC2 (single isomer, unassigned) [Example 254] | = | 3.21e-06 |
| Cc1nn(C)c2c1-c1cccc3c(CCCOc4cccc5ccccc45)c(C(=O)O)n(c13)CCCN(C)C2 (single isomer, unassigned; enantiomer 2) [Example 1-32] | > | 3.3e-05 |
| Cc1cc(OCCCc2c(C(=O)O)n3c4c(cccc24)-c2c(C)nn(C)c2COCCCC3)cc(C)c1Cl (single isomer, unassigned; enantiomer 2) [Example 011] | > | 3.3e-05 |
| CN1CCCn2c(C(=O)O)c(CCCOc3cccc4ccccc34)c3cccc(c32)-c2c(nn(C)c2COc2ccc(N3CCN(S(=O)(=O)N(C)C)CC3)cc2)C1 (single isomer, unassigned; enantiomer 1) [Example 1-112] | = | 3.3e-06 |
| CN1CCCn2c(C(=O)O)c(CCCOc3cccc4ccccc34)c3cccc(c32)-c2c(COc3ccc(S(C)(=O)=O)cc3)nn(C)c2C1 (single isomer, unassigned) [Example 1-50] | = | 5.74e-06 |
| CCN(CC)S(=O)(=O)N1CCN(c2ccc(OCc3nn(C)c4c3-c3cccc5c(CCCOc6cccc7ccccc67)c(C(=O)O)n(c35)CCCCOC4)cc2)CC1 (single isomer, unassigned; enantiomer 2) [Example 1-5] | = | 3.2e-06 |
| COC1(c2ccc(OCc3nn(C)c4c3-c3cccc5c(CCCOc6cccc7ccccc67)c(C(=O)O)n(c35)CCCCOC4)cc2)CCOCC1 (single isomer, unassigned) | = | 1.22e-05 |
| Cc1nn(C)c2c1-c1cccc3c(CCCOc4cccc5cc(F)ccc45)c(C(=O)O)n(c13)CCCOC2 (single isomer, unassigned; enantiomer 1) | = | 3.22e-06 |
| CCc1c2c(nn1CCN1CCOCC1)COCCCCn1c(C(=O)O)c(CCCOc3cccc4ccccc34)c3cccc-2c31 (single isomer, unassigned; enantiomer 2) [Example 203] | = | 1.32e-06 |
| Cc1c2c(nn1C)CCCCCCn1c(C(=O)O)c(CCCOc3cccc4ccccc34)c3cccc-2c31 (single isomer, unassigned; enantiomer 2) [Example 192] | > | 3.3e-05 |
| O=C(O)c1c(CCCOc2cccc3ccccc23)c2cccc3c2n1CCCCOCc1nn2c(c1-3)CCCC2 (single isomer, unassigned) [Example 255] | > | 3.3e-05 |
| CN(C)S(=O)(=O)N1CCN(c2ccc(OCc3nn(C)c4c3-c3cccc5c(CCCOc6cccc7ccccc67)c(C(=O)O)n(c35)CCCCCC4)cc2)CC1 (single isomer, unassigned; enantiomer 1) [Example 1-40] | = | 1.69e-05 |
| CC(=O)N1CCN(c2ccc(OCc3nn(C)c4c3-c3cccc5c(CCCOc6cccc7ccccc67)c(C(=O)O)n(c35)CCCCOC4)cc2)CC1 (single isomer, unassigned; enantiomer 2) [Example 1-26] | > | 3.3e-05 |
| Cn1nc(COc2ccc(N3CCOCC3)cc2)c2c1COCCCCn1c(C(=O)O)c(CCCOc3cccc4ccccc34)c3cccc-2c31 (single isomer, unassigned; enantiomer 1) [Example 122] | = | 2.92e-05 |
| CCCc1nn(C)c2c1-c1c(C)ccc3c(CCCOc4cccc5ccccc45)c(C(=O)O)n(c13)CCCCOC2 (single isomer, unassigned; enantiomer 1) [Example 188] | = | 2.95e-06 |
| Cn1nc(CC(F)(F)F)c2c1COCCCCn1c(C(=O)O)c(CCCOc3cccc4ccccc34)c3cccc-2c31 (single isomer, unassigned) [Example 221] | > | 3.3e-05 |
| Cc1ccc2c(C(C)CCOc3cccc4ccccc34)c(C(=O)O)n3c2c1-c1c(C)nn(C)c1COCCCC3 (single isomer, unassigned) [Example 258] | > | 3.3e-05 |
| COCCn1nc(C2CC2)c2c1COCCCCn1c(C(=O)O)c(CCCOc3cccc4c3CCCC4)c3cccc-2c31 (single isomer, unassigned; enantiomer 2) [Example 166] | = | 2.81e-05 |
| Cc1c2c(nn1CCN1CCOCC1)COCCCCn1c(C(=O)O)c(CCCOc3cccc4ccccc34)c3cccc-2c31 (single isomer, unassigned; enantiomer 1) [Example 054] | = | 1.61e-06 |
| CCc1c2c(nn1C)CN(C)CCCn1c(C(=O)O)c(CCCOc3cccc4ccccc34)c3cccc-2c31 (single isomer, unassigned; enantiomer 1) [Example 142] | = | 6.07e-06 |
